Please go through the items and note down their Ki.
Target: human sphingosine kinase type 2 (hSPHK2) (Homo sapiens)
Sequence (Q9NRA0 1-654): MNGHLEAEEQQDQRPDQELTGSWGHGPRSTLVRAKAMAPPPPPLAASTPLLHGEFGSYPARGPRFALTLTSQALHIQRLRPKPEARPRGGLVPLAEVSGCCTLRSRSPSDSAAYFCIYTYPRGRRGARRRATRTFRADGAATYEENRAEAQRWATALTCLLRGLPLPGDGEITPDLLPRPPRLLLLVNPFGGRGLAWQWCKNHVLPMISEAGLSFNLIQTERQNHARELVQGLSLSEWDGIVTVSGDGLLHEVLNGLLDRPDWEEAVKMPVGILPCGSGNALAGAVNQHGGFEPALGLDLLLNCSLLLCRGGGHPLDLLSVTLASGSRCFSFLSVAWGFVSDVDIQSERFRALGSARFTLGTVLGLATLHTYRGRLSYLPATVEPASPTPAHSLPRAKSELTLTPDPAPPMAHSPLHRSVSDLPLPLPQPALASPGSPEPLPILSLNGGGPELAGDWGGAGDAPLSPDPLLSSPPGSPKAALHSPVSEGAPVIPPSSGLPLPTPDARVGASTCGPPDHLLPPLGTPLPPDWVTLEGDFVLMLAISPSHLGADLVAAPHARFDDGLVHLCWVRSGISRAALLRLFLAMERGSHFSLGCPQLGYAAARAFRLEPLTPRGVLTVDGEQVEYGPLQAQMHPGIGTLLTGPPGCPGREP
Experiment: Sphingosine kinase assay, recombinant human SPHK2 ([32P]S1P product, scintillation counting)
Conditions: read-out: activity hSPHK2 (range estimate of KI)
Structures can show the parent of a compound that is named as a salt.

Here are 8 compounds together with their reported answers.
{"columns": ["compound", "Ki"],
 "data": [
  ["CCCc1ccc(CCc2ccc(-c3noc([C@@H]4CCCN4C(=N)N)n3)cc2C(F)(F)F)cc1 [Compound 35A, hydrochloride]", "< 1000 nM"],
  ["N=C(N)N1CC[C@H](O)[C@H]1c1nc(-c2ccc(OCCCc3ccc(Cl)c(Cl)c3)c(C(F)(F)F)c2)no1 [Compound 28A]", "< 1000 nM"],
  ["CCCCCCCCOc1c(C)cc(-c2noc([C@@H]3CCCN3C(=N)N)n2)cc1C", "< 1000 nM"],
  ["CCCCCOc1ccc2cc(-c3noc([C@@H]4CCCN4C(=N)N)n3)ccc2c1 [Compound 12A]", "> 10000 nM"],
  ["N=C(N)N1CCC[C@H]1c1nc(-c2ccc3cc(OCC4CCCC4)ccc3c2)no1 [Compound 66A]", "> 10000 nM"],
  ["COCCCOc1ccc2cc(-c3noc([C@@H]4CCCN4C(=N)N)n3)ccc2c1 [Compound 57A]", "> 10000 nM"],
  ["N=C(N)N1CC[C@H](O)[C@H]1c1nc(-c2ccc(OCCCC3CCCCC3)c(C(F)(F)F)c2)no1 [Compound 95A]", "< 1000 nM"],
  ["N=C(N)N1CCC[C@H]1c1nc(-c2ccc3cc(OCc4ccc(-c5ccccc5)cc4)ccc3c2)no1 [Compound 72A]", "1000 to 10000 nM"]
]}

For every item in the list below, what is its measured Ki?
1. N=C(N)N1CCC[C@H]1c1nc(-c2ccc(OC/C=C/c3cccc(C(F)(F)F)c3)c(C(F)(F)F)c2)no1 [Compound 90A, 2,2,2-trifluoroacetate]
2. COc1ccc(CCc2ccc(-c3noc([C@@H]4CCCN4C(=N)N)n3)cc2C(F)(F)F)cc1 [Compound 42A, hydrochloride]
3. CC(C)(C)c1ccc(CCc2ccc(-c3noc([C@@H]4CCCN4C(=N)N)n3)cc2C(F)(F)F)cc1 [Compound 61A]
4. N#Cc1ccc(COc2ccc3cc(-c4noc([C@@H]5CCCN5C(=N)N)n4)ccc3c2)cc1 [Compound 70A]
5. CCCCCCCCCn1cc(-c2noc([C@@H]3CCCN3C(=N)N)n2)c2ccccc21
6. N=C(N)N1CCC[C@H]1c1nc(-c2ccc(CCc3ccc(C(F)(F)F)cc3)c(C(F)(F)F)c2)no1 [Compound 39A, hydrochloride]
7. CCCCCCCCCCCCn1cc(-c2noc([C@@H]3CCCN3C(=N)N)n2)c2ccccc21

< 1000 nM
< 1000 nM
< 1000 nM
1000 to 10000 nM
> 10000 nM
< 1000 nM
< 1000 nM

For every item in the list below, what is its measured Ki?
1. CCCCCCCCOc1ccc(-c2noc([C@@H]3C[C@@H](F)CN3C(=N)N)n2)cc1C(F)(F)F [Compound 49A]
2. CCCCCCCCOc1ccc(-c2noc([C@@H]3C[C@H](O)CN3C(=N)N)n2)cc1C(F)(F)F
3. CCCCCCCCOc1ccc(-c2noc([C@@H]3CCCN3C(=N)N)n2)cc1C

< 1000 nM
> 10000 nM
< 1000 nM
